# credit: patent US11512042B2

Assay: UV absorbance spectrum in solution (λmax, λcrit, extinction coefficients)
Format: physicochemical
Conditions: mass extinction coefficient
Quick rule for you: E (1%, 1 cm) under 900 gets true (1), anything else gets false (0).

• CCN(/C=C(\C(=O)C(F)(F)F)c1ccccc1)CCOC(=O)c1ccc2c(c1)CCN2/C=C(\C(=O)C(F)(F)F)c1ccccc1 [Compound 226] = true (1)
• CCN(/C=C(\C(=O)C(F)(F)F)c1ccccc1)c1ccccc1C [Compound 177] = true (1)
• CCCN(/C=C(\C(=O)C(F)(F)F)c1ccccc1)c1ccc(N(/C=C(\C(=O)C(F)(F)F)c2ccccc2)CCC)cc1 [Compound 196] = true (1)
• CCN(/C=C(\C(=O)C(F)(F)F)c1ccccc1)c1cccc(C)c1 [Compound 186] = true (1)
• CCCCN(/C=C(/C(=O)C(F)(F)F)c1ccccc1)c1ccccc1 [Compound 234] = true (1)
• CCN(/C=C(/C(=O)c1ccccc1)c1ccccc1)CC [Compound 268] = true (1)
• CC(C)(C)OC(=O)C(=O)/C(=C/N1CCc2ccccc21)c1ccccc1 [Compound 267] = false (0)
• Cc1ccccc1C(=O)/C(=C/N1CCc2ccccc21)c1ccccc1 [Compound 251] = false (0)
• CCOC(=O)C(=O)/C(=C/N(CC)CC)c1ccccc1 [Compound 260] = true (1)
• CCCCC(CC)COC(=O)c1ccc2c(c1)CCN2C=C(C(=O)c1c(C)cc(C)cc1C)c1ccccc1 (centres unmarked) [Compound 303] = false (0)
• COc1ccccc1C(=O)/C(=C/N(c1ccccc1)c1ccccc1)c1ccccc1 [Compound 285] = true (1)
• O=C(/C(=C\N1CCc2ccccc21)c1ccccc1)C(F)(F)F [Compound 164] = false (0)
• CCCCC(CC)COC(=O)c1cccc(N(/C=C(/C(=O)C(F)(F)F)c2ccccc2)CC)c1 (centres unmarked) [Compound 232] = true (1)
• CC(C)(C)C(=O)/C(=C/N(c1ccccc1)c1ccccc1)c1ccccc1 [Compound 294] = true (1)
• O=C(/C(=C\N1CCCN(/C=C(/C(=O)C(F)(F)F)c2ccccc2)CC1)c1ccccc1)C(F)(F)F [Compound 210] = true (1)
• CC(C)(C)C(=O)/C(=C/N1CCc2cc(C(=O)OCCCOC(=O)c3ccc4c(c3)CCN4/C=C(/C(=O)C(C)(C)C)c3ccccc3)ccc21)c1ccccc1 [Compound 304] = false (0)
• CCN(/C=C(/C(=O)c1ccc(S(=O)(=O)N(C)C)cc1)c1ccccc1)c1ccccc1 [Compound 264] = true (1)
• O=C(/C(=C\N1CCc2ccc(C(F)(F)F)cc21)c1ccccc1)C(F)(F)F [Compound 236] = true (1)
• CC(C)(C)OC(=O)C(=O)/C(=C/N(c1ccccc1)c1ccccc1)c1ccccc1 [Compound 270] = true (1)
• N#CCC(=O)/C(=C\N1CCc2ccccc21)c1ccccc1 [Compound 249] = false (0)
• CCCCC(CC)COC(=O)c1ccc(N(/C=C(\C(=O)C(F)(F)F)c2ccccc2)c2ccccc2)cc1 (centres unmarked) [Compound 230] = true (1)
• CCN(/C=C(\C(C)=O)c1ccccc1)CC [Compound 149] = true (1)
• COC(=O)c1ccc2c(c1)CCN2/C=C(/C(=O)C(=O)OC(C)(C)C)c1ccccc1 [Compound 269] = false (0)
